Consider the following compounds; for each one, report its IC50.
EXPERIMENTAL TARGET: Dual specificity protein phosphatase 6 (Homo sapiens, UniProt Q16828)
Sequence (Q16828 whole entry): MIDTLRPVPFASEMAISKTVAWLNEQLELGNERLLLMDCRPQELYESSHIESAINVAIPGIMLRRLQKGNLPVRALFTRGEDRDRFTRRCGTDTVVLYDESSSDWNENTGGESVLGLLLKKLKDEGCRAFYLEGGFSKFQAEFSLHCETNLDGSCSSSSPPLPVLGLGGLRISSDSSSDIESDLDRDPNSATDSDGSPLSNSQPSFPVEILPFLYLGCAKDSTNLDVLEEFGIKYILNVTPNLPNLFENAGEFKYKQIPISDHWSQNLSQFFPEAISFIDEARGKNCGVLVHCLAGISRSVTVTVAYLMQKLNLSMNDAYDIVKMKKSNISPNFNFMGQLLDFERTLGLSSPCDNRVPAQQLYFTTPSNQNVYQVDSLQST

Example compounds with recorded IC50:
{"COMPOUND": "Cc1c(Br)cc(NC(=O)C(c2ccccc2)S(=O)(=O)O)cc1Br (stereo not drawn)", "IC50": "> 200 µM"}
{"COMPOUND": "O=C(Nc1nc2ccc([N+](=O)[O-])cc2s1)C(c1ccccc1)S(=O)(=O)O (stereo not drawn)", "IC50": "> 100 µM"}

(Q) Give a short answer stating reported IC50 for O=C(Nc1ccc(-n2ccnc2)cc1)C(c1ccccc1)S(=O)(=O)O (stereo not drawn) .
(A) > 100 µM

====

EXPERIMENTAL TARGET: RNA polymerase II subunit A C-terminal domain phosphatase SSU72 (Homo sapiens)
Sequence (Q9NP77 whole entry, the tested form may be a part): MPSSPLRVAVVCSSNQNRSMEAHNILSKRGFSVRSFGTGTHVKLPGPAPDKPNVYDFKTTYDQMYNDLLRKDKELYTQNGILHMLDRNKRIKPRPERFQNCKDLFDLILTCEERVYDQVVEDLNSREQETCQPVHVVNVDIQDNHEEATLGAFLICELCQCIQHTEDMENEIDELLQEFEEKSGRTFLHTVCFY
ASSAY REMARKS: Inhibition of His-tagged SSu72 (unknown origin) expressed in Escherichia coli BL21 cells using para-nitrophenyl phosphate as substrate incubated for 5 to 10 mins by microplate reader based spectrophotometric analysis
RECORDED METRIC: IC50

For the 2 compounds below, give their IC50 values.
1. O=C(Nc1nc2ccc([N+](=O)[O-])cc2s1)C(c1ccccc1)S(=O)(=O)O (stereo not drawn)
2. Cc1c(Br)cc(NC(=O)C(c2ccccc2)S(=O)(=O)O)cc1Br (stereo not drawn)

(A)
1. > 100 µM
2. > 200 µM

(Q) Please look at O=C(Nc1ccc(-n2ccnc2)cc1)C(c1ccccc1)S(=O)(=O)O (stereo not drawn) and tell me its recorded IC50 on RNA polymerase II subunit A C-terminal domain phosphatase SSU72 (Homo sapiens).
(A) > 100 µM

# credit: ChEMBL document CHEMBL4715770
